Assay: Cytotoxicity assay (MTS/PES)
Format: cell-based
Conditions: HUT-78 cells, 1 day
result type: CC50

Could you tell me which CC50 is on file for "C/C=C1\NC(=O)[C@H](Cc2ccccc2)NC(=O)[C@@H]2CCCN2C(=O)[C@H](C(C)C)NC(=O)[C@H](Cc2c[nH]c3ccccc23)NC(=O)[C@]23CSC[C@H](NC1=O)C(=O)N[C@H](C(=O)O)CSSC[C@H](NC(=O)[C@@H]1CSC[C@]4(C[C@H](N)C(=O)N[C@@H](CC(N)=O)C(=O)N[C@@H](C)C(=O)N4)C(=O)N[C@@H](C(C)C)C(=O)N[C@@H](Cc4c[nH]c5ccccc45)C(=O)N[C@@H](CCC(=O)O)C(=O)N1)C(=O)N[C@@H](C2)C(=O)N[C@@H]([C@@H](C)O)C(=O)NCC(=O)N3" ?
> 31 µM
